- System Tested: IRAK4 (Homo sapiens (Human))
- Sequence (Q9NWZ3 whole entry): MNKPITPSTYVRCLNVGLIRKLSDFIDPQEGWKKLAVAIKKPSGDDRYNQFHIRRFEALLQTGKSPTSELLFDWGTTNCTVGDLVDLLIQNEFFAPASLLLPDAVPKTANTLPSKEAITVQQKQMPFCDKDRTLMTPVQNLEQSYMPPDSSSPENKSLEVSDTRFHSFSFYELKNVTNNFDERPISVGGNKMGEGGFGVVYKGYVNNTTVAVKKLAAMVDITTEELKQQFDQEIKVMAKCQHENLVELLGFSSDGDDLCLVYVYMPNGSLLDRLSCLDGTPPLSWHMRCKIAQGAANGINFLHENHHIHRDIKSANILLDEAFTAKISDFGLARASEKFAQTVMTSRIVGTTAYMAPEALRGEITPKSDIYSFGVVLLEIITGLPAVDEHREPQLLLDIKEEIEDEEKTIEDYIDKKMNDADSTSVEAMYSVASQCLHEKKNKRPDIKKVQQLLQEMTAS
- Procedure Text: IRAK4 degradation in human whole blood lymphocyte - flow cytometry
- Type: cell-based
- Condition Description: read-out: IRAK4 degradation in whole blood lymphocyte-Flow cytometry: Average external Abs IC50
Endpoint Label: DC50

Q. In one line, give reported DC50 of the entry CN(CCCCOCCCCc1cccc2c1n(C)c(=O)n2C1CCC(=O)NC1=O)C[C@H]1CC[C@H](n2cc(NC(=O)c3coc(-c4ccnc(NCC5CC5)c4)n3)c(C(F)F)n2)CC1 (stereo partly shown) [I-67] .
A. 50 to 100 nM

Q. Specify DC50 for C=C(C)c1nn([C@H]2CC[C@H](C(=O)N(C)CCCOCCCc3cccc4c3n(C)c(=O)n4C3CCC(=O)NC3=O)CC2)cc1NC(=O)c1coc(-c2ccnc(NCC3CC3)c2)n1 (stereo partly shown) [I-31] and stop.
A. 100 to 500 nM

Q. Report measured DC50; entry is Cn1c(=O)n(C2CCC(=O)NC2=O)c2ccc(CCCN3CCO[C@H](CNC[C@H]4CC[C@H](n5cc(NC(=O)c6coc(-c7ccnc(NCC8CC8)c7)n6)c(C(F)F)n5)CC4)C3)cc21 (stereo partly shown) [I-35]
A. 50 to 100 nM

Q. Consider the compound Cn1c(=O)n(C2CCC(=O)NC2=O)c2cccc(CCCOC3CCN(C[C@H]4CC[C@H](n5cc(NC(=O)c6coc(-c7ccnc(NCC8CC8)c7)n6)c(C(F)F)n5)CC4)CC3)c21 (stereo partly shown) [I-48] . State its measured DC50.
A. < 50 nM

Q. Supply DC50 value. Item: Cn1c(=O)n(C2CCC(=O)NC2=O)c2ccc(CN3CCN(CCO[C@H]4C[C@H](N(C)C(=O)[C@H]5CC[C@H](n6cc(NC(=O)c7coc(-c8ccnc(NCC9CC9)c8)n7)c(C(F)F)n6)CC5)C4)CC3)cc21 (stereo partly shown) [I-45]
A. 50 to 100 nM

Q. Please give measured DC50 of the following entry: O=C1CCC(n2c3ccc(CCCOCCOCCNCC4CCC(n5cc(NC(=O)c6coc(-c7ccnc(NCC8CC8)c7)n6)c(C(F)F)n5)CC4)cc3c3cccnc32)C(=O)N1 (stereo not shown) [I-47]
A. 100 to 500 nM

Q. For the compound Cn1c(=O)n(C2CCC(=O)NC2=O)c2ccc(CCCCOCCCCNC[C@H]3CC[C@H](n4cc(NC(=O)c5coc(-c6ccnc(NCC(F)(F)F)c6)n5)c(C(N)=O)n4)CC3)cc21 (stereo partly shown) [I-9] , give its reported DC50.
A. 50 to 100 nM

Q. Identify DC50 associated with the compound CN(C[C@@H]1CN(CCCc2ccc3c(c2)n(C)c(=O)n3C2CCC(=O)NC2=O)CCO1)C[C@H]1CC[C@H](n2cc(NC(=O)c3coc(-c4ccnc(NCC5CC5)c4)n3)c(C(C)(C)O)n2)CC1 (stereo partly shown) [I-33]
A. < 50 nM

***
Q. Entry CN(C[C@H]1CN(CC#Cc2ccc3c(c2)n(C)c(=O)n3C2CCC(=O)NC2=O)CCO1)C[C@H]1CC[C@H](n2cc(NC(=O)c3coc(-c4ccnc(NCC5CC5)c4)n3)c(C(F)F)n2)CC1 (stereo partly shown) [I-61] needs its DC50 filled in; supply it.
A. 100 to 500 nM

Q. Tell me its DC50 given Cn1c(=O)n(C2CCC(=O)NC2=O)c2ccc(CCCCOCCCCNC[C@H]3CC[C@H](n4cc(NC(=O)c5cnn6ccc(N7CCNCC7)nc56)c(C(F)F)n4)CC3)cc21 (stereo partly shown) [I-42] as the entry.
A. < 50 nM
